Parameter: melting point. Scope: all listed entries.

Using the record for O=C(Nc1ccc(Br)cc1)Nc1ccc2[nH]c(C(F)(F)F)nc2c1 , report its melting point.
> 250 °C

What about this molecule? CSc1cccc(NC(=O)Nc2cccc3[nH]ccc23)c1
198 to 201 °C

What about this molecule? O=C(Nc1ccc(F)cc1)Nc1ccc2c(c1)S(=O)(=O)C=C2
242 to 243 °C

What about this molecule? CSc1cccc(NC(=O)Nc2ccc3c(c2)S(=O)(=O)C=C3)c1
212 to 213 °C

What about this molecule? COc1ccc(NC(=O)Nc2cccc3[nH]ccc23)cc1
230 to 232 °C

What about this molecule? O=C(Nc1ccc(Cl)c(Cl)c1)Nc1ccc2[nH]c(C(F)(F)F)nc2c1
240 to 242 °C

What about this molecule? CC(C)c1ccc(NC(=O)Nc2cccc3[nH]ccc23)cc1
222 to 224 °C

What about this molecule? Cc1nc2cc(NC(=O)Nc3cc(C(F)(F)F)ccc3Cl)ccc2s1
240 to 241 °C

What about this molecule? CSc1ccc(NC(=O)Nc2cccc3[nH]ccc23)cc1
228 to 231 °C

What about this molecule? Cc1cccc(NC(=O)Nc2ccc3[nH]c(C(F)(F)F)nc3c2)c1
245 to 247 °C

What about this molecule? Cc1nc2cc(NC(=O)Nc3cccc(-c4ccccc4)c3)ccc2s1
216 to 219 °C

What about this molecule? O=C(Nc1cccc(C(F)(F)F)c1)Nc1cccc2[nH]ccc12
211 to 213 °C

What about this molecule? O=C(Cc1ccc(Cl)c(C(F)(F)F)c1)Nc1ccc2cn[nH]c2c1
> 250 °C

What about this molecule? Cc1nc2cc(NC(=O)Nc3ccc(C(C)C)cc3)ccc2[nH]1
> 250 °C

====

Parameter: pIC50. Scope: all listed entries.
- Target: human VR1 (Homo sapiens, UniProt Q8NER1)
- Construct: The cloned hVR1 cDNA was constructed with pcDNA3 vector and transfected into a CHOluc9aeq cell line; expressed in transfected cells
- Sequence (Q8NER1 whole entry): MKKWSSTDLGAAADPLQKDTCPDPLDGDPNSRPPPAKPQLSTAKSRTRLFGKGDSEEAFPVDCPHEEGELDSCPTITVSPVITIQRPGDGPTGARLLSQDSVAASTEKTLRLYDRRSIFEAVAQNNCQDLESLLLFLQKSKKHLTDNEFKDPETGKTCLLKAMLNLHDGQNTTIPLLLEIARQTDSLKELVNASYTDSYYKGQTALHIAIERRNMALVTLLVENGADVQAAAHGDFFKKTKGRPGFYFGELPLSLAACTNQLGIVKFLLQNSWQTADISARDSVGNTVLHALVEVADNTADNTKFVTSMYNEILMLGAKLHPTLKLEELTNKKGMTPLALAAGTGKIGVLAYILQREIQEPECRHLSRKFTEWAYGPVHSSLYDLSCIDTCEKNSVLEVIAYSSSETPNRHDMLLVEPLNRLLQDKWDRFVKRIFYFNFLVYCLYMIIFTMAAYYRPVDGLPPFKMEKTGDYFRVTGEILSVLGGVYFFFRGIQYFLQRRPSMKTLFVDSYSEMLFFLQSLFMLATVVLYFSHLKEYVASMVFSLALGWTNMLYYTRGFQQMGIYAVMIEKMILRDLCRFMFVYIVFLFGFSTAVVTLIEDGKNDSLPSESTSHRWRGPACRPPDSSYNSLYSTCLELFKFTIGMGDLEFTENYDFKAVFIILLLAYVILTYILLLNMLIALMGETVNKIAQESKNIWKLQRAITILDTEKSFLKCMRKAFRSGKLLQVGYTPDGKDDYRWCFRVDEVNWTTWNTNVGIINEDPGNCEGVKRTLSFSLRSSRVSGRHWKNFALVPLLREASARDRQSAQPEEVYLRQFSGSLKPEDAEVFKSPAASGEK
- Procedure summary: Capsaicin-induced Ca2+ influx in the human VR1-transfected CHO cell line (Assay 1)
- Assay type: cell-based
- Test conditions: read-out: hVR1 class
pIC50: −log10 of the molar value.

Consider the following illustrative entries.
>>> value_measured("O=C(Nc1ccc(Cl)c(C(F)(F)F)c1)Nc1ccc2[nH]cnc2c1")
"6.30 to 7.00"
>>> value_measured("O=C(Nc1ccccc1F)Nc1cccc2[nH]ccc12")
"6.00 to 6.30"
>>> value_measured("Cc1nc2cc(NC(=O)Nc3ccc(F)cc3)ccc2s1")
"> 7.00"
>>> value_measured("O=C(Nc1ccc(Cl)cc1)Nc1cccc2[nH]ccc12")
"6.30 to 7.00"
>>> value_measured("Cc1nc2cc(NC(=O)Nc3ccc(F)cc3F)ccc2s1")
"> 7.00"

Using the record for COc1cccc(NC(=O)Nc2cccc3[nH]ccc23)c1 , report its pIC50.
6.30 to 7.00

What about this compound? O=C(Nc1ccc(Cl)c(Cl)c1)Nc1ccc2[nH]c(C(F)(F)F)nc2c1
6.00 to 6.30

What about this compound? COc1ccccc1NC(=O)Nc1cccc2[nH]ccc12
6.00 to 6.30

What about this compound? Cc1nc2cc(NC(=O)Nc3ccc(Cl)c(Cl)c3)ccc2s1
> 7.00

====

- Target: human VR1 (Homo sapiens, UniProt Q8NER1)
- Construct: The cloned hVR1 cDNA was constructed with pcDNA3 vector and transfected into a CHOluc9aeq cell line; expressed in transfected cells
- Procedure summary: Capsaicin-induced Ca2+ influx in the human VR1-transfected CHO cell line (Assay 1)
- Type: cell-based
- Test conditions: read-out: hVR1 class
Measurement label: IC50

Consider the following illustrative entries.
>>> value_measured("CSc1nc2ccc(NC(=O)Nc3ccc(Cl)c(C(F)(F)F)c3)cc2s1")
"100 to 500 nM"
>>> value_measured("O=C(Nc1ccc(Oc2ccccc2)cc1)Nc1ccc2[nH]cnc2c1")
"100 to 500 nM"
>>> value_measured("CSc1cccc(NC(=O)Nc2ccc3[nH]c(C(F)(F)F)nc3c2)c1")
"500 to 1000 nM"

Using the record for O=C(Nc1ccc(F)cc1F)Nc1cccc2[nH]ccc12 , report its IC50.
500 to 1000 nM

What about this compound? CC(=O)c1cccc(NC(=O)Nc2cccc3[nH]ccc23)c1
500 to 1000 nM

What about this compound? O=C(Nc1ccc(Oc2ccccc2)cc1)Nc1ccc2[nH]c(C(F)(F)F)nc2c1
500 to 1000 nM

What about this compound? O=C(Nc1ccc(F)cc1)Nc1ccc2[nH]ncc2c1
500 to 1000 nM

What about this compound? O=C(NCc1ccc(Br)cc1)Nc1cccc2[nH]c(C(F)(F)F)nc12
500 to 1000 nM

What about this compound? O=C(Nc1ccc(F)cc1)Nc1ccc2c(c1)S(=O)(=O)C=C2
500 to 1000 nM

What about this compound? CSc1cccc(NC(=O)Nc2cccc3[nH]ccc23)c1
100 to 500 nM

What about this compound? CCOC(=O)c1cccc(NC(=O)Nc2cccc3[nH]ccc23)c1
< 100 nM

What about this compound? O=C(NCc1ccc(Br)cc1)Nc1cccc2cc[nH]c12
< 100 nM

What about this compound? O=C(Nc1ccccc1Cl)Nc1cccc2[nH]ccc12
100 to 500 nM
